target.under.test: Erg26p (Saccharomyces cerevisiae)
Sequence (P53199 1-349): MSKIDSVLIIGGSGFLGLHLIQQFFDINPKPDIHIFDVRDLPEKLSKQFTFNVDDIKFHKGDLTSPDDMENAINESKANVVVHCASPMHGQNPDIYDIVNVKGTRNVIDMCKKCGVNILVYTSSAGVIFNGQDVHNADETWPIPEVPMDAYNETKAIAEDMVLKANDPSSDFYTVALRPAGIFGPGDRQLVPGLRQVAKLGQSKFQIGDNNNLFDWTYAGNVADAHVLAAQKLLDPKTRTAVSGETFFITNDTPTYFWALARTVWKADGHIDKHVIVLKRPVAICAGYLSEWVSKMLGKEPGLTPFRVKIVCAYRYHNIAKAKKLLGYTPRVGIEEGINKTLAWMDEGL
procedure.summary: In vitro microsomal Erg26p activity assay (GC-MS)
measured.parameter: IC50

Query block: Consider the compound C=C(CCC(C)C1CCC2C1(C)CC(O)C13CC14C(=O)CC(O)C(C)(C(=O)NCc1ccccc1)C4C(=O)CC23O)C(C)C (stereo not shown) and give its measured IC50.
Result block: > 500 µM
